Molecular target: hERG (Homo sapiens)
Sequence (Q12809 whole entry): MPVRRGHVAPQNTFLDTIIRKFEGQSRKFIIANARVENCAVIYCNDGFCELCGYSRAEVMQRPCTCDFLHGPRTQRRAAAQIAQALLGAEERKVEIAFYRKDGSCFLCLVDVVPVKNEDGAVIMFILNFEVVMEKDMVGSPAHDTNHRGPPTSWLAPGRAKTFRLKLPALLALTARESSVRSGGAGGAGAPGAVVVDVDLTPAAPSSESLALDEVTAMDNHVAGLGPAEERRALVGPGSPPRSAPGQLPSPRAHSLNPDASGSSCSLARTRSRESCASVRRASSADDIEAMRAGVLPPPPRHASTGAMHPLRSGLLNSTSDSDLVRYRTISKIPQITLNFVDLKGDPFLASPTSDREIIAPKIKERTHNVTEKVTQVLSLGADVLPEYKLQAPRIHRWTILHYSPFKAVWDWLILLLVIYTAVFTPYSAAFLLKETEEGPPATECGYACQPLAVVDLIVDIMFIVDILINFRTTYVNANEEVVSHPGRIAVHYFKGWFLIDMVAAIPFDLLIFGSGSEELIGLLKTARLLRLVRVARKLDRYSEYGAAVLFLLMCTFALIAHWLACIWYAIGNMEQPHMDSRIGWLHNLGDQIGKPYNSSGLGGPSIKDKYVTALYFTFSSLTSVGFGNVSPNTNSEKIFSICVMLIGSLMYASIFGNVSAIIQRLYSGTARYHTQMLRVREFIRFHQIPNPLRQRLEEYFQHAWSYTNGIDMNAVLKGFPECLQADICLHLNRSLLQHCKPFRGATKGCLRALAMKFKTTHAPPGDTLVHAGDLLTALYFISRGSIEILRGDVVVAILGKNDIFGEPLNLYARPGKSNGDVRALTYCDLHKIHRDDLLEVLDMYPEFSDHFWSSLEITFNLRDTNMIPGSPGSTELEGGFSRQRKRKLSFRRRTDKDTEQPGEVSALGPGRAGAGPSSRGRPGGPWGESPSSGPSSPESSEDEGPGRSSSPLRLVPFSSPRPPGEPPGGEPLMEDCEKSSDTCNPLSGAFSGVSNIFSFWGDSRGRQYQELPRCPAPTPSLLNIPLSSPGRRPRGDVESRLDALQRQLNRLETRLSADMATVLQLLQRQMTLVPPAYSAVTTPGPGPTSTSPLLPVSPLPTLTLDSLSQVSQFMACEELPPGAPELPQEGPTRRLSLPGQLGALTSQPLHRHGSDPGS
Type: cell-based
Conditions: hERG FastPatch; test conc 0.008-25 μM (SP16), 0.01-10 μM (Quinidine)
ENDPOINT LABEL: IC50

Please fill in: IC50 reported for CC[C@H](C)[C@H](NC(=O)[C@H](CCSC)NC(=O)[C@H](CC(C)C)NC(=O)[C@H](Cc1ccccc1)NC(=O)[C@@H](NC(=O)[C@H](Cc1ccccc1)NC(=O)[C@@H]1CCCN1C(=O)[C@H](CCCCN)NC(=O)[C@H](CC(N)=O)NC(=O)[C@H](Cc1ccccc1)NC(=O)[C@H](CCCCN)NC(=O)[C@@H](N)C(C)C)C(C)C)C(=O)N[C@@H](CCC(=O)O)C(=O)N[C@@H](CCC(N)=O)C(=O)N[C@@H](CC(N)=O)C(=O)N[C@H](C(=O)N[C@@H](CCCCN)C(=O)O)[C@@H](C)O = > 25 µM
